Sourced from paper PMC11931385

This section presents binders with their documented pKd values.
Target: T1, Rb^P R621S (human, UniProt P06400 380-788, R621S)
T1 construct: also called variant 44
T1 sequence (looked up): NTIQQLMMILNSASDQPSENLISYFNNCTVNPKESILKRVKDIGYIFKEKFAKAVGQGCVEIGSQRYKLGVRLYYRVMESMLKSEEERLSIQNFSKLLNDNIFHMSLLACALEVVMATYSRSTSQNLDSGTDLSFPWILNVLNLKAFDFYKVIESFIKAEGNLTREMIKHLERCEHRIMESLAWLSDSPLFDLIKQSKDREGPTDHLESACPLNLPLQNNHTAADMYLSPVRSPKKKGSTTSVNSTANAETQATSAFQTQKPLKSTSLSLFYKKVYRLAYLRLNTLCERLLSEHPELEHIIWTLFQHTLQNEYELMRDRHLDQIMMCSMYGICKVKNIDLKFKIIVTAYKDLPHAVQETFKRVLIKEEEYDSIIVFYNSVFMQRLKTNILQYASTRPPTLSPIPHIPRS
Test: fluorescence polarisation; 37 °C, after the 25 °C reading ramped over 7 min to 37 °C and 2 min incubation; unlabeled Rb^P against 1.5 nM TMR-E2F1^TD or 7.5 nM TMR-E7^LxCxE; 25 mM Tris pH 8.0, 200 mM NaCl, 1 mM DTT, 0.1% Tween-20; apparent Kd
Conditions: both partners purified
No end group written: not given here. TMR = tetramethyl rhodamine dye
Please note pKd is a logarithmic value: minus log10 of concentration in mol/L. Answer with that number alone.

DLYCYEQLN (also: TMR label, position not given here, source: synthetic peptide, bought: GenScript) [TMR-E7^LxCxE, LxCxE peptide of the E7 oncoprotein from HPV] = 7.77

Then this binder:
Given the binder {TMR}-GEGIRDLFDCDFGDLTPLD (also called E2F^TD; source: synthetic peptide, bought: GenScript) [TMR-E2F1^TD, peptide of the E2F1 transactivation domain] , what is its reported pKd?
7.42
